System: NF-κB
MEASUREMENT_PROTOCOL: NFκB-luciferase assay in Ad5-wt-ER infected HAECT-1 cells
Format: cell-based, human
CONDITION_PARAMETERS: IL-1 treated, read-out: ER/NF-KB-luc IC50
ASSAY_METRIC: pIC50
# pIC50 is unitless: minus log10 of the molar concentration; print number only

COMPOUND	pIC50
C[C@@H]1c2ccccc2-c2sc(Br)cc2N1S(=O)(=O)c1ccc(O)cc1 [Example 7]	5.84

Read the next record carefully.
Request: Quote pIC50 reported for C[C@H]1c2ccccc2-c2sc(Br)cc2N1S(=O)(=O)c1ccc(O)cc1 [Example 8] please.
Result: 7.72

----------
Listed below: melting point values for each entry.

# example entries with known answers
MOLECULE	melting point
CC1c2ccccc2-c2sc(Br)cc2N1S(=O)(=O)c1ccc(O)cc1 (stereo not drawn)	209 to 211 °C
CCC1c2ccccc2-c2sc(-c3ccsc3)cc2N1S(=O)(=O)c1ccc(O)cc1 (stereo not drawn)	195 to 196 °C
CCC1c2ccccc2-c2sccc2N1S(=O)(=O)c1ccc(O)cc1 (stereo not drawn)	169 to 171 °C
CCC1c2ccccc2-c2sc(Br)cc2N1S(=O)(=O)c1ccc(O)cc1 (stereo not drawn)	183 to 185 °C

Request: Consider the molecule CCc1cc2c(s1)-c1ccccc1C(CC)N2S(=O)(=O)c1ccc(O)cc1 (stereo not drawn) and give its recorded melting point.
Result: 119 to 122 °C

Request: State, in one line, measured melting point of CC1c2ccccc2-c2sccc2N1S(=O)(=O)c1ccc(O)cc1 (stereo not drawn)
Result: 163 to 165 °C
